# test_target: T. gondii ME49Luc in IFN-y HeLa, luciferase, 72 h
# protocol_text: T. gondii growth inhibition with IFN-gamma, dose response, cell-based, ME49Luc, HeLa, luciferase, 72 h (AID 1259418)
Records with an inconclusive call do not appear.
property_measured: AC50

Some entries whose results are on file:
Query for T. gondii ME49Luc in IFN-y HeLa, luciferase, 72 h: what AC50 does the record show for `N#C[C@H]1[C@@H](c2ccc(-c3cccnc3)cc2)[C@@H](CO)N1C(=O)Nc1ccc(F)cc1` ? 12.7 µM

Query for T. gondii ME49Luc in IFN-y HeLa, luciferase, 72 h: what AC50 does the record show for `N#Cc1cccc(-c2ccc3c(c2)[C@@H]2[C@@H](CCN2S(=O)(=O)c2ccc(F)cc2)[C@@H](CO)N3)c1` ? 15.7 µM

Query for T. gondii ME49Luc in IFN-y HeLa, luciferase, 72 h: what AC50 does the record show for `CCN(c1ccccc1C)S(=O)(=O)c1cc2c3c(c1)CCC(=O)N3CCC2` ? 13 µM

***
Query for T. gondii ME49Luc in IFN-y HeLa, luciferase, 72 h: what AC50 does the record show for `O=C(NCCc1csc(-c2ccccc2)n1)C1CCN(S(=O)(=O)c2ccc(F)cc2)CC1` ? 11.4 µM

Query for T. gondii ME49Luc in IFN-y HeLa, luciferase, 72 h: what AC50 does the record show for Cc1oc(-c2cccc(Cl)c2)nc1CN1CCc2c(sc3c2CCCC3)C1c1ccccc1 (stereo not given) ? 6.85 µM

###

# test_target: T. gondii ME49Luc in IFN-y HeLa, luciferase, 72 h
# protocol_text: T. gondii growth inhibition with IFN-gamma, dose response, cell-based, ME49Luc, HeLa, luciferase, 72 h (AID 1259418)
Results filed as inconclusive are left out. Activity calls are given as the source filed them.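 Rule for the calls: active = fitted half-maximal concentration of signal decrease at or below twice the sample's top tested concentration; inconclusive = flat curve between -70 and -30 percent, or poor fit; inactive = flat within 30 percent, signal rise, or potency above limit.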
# valid calls are Y = active, N = inactive; nothing else

Examples from the recorded data:
Identify the outcome logged in this assay for the molecule shown: `COc1ccc(NC(=O)CN2CCC3(CC2)N=C(c2cccc(C)c2)C(=O)N3)c(OC)c1` Y

Identify the outcome logged in this assay for the molecule shown: `OC1(c2cccc(C(F)(F)F)c2)CCN(Cc2ccc3[nH]ccc3c2)CC1` Y

***
Identify the outcome logged in this assay for the molecule shown: `O=C(NC1CCCC1)N1CC(=O)N2[C@H](CO)[C@H](c3ccc(C4=CCCCC4)cc3)[C@@H]2C1` Y

Identify the outcome logged in this assay for the molecule shown: O=C(CCC1N=C2c3ccccc3N=C(SCc3cccc(F)c3)N2C1=O)NCc1cccs1 (centres undefined) Y

Identify the outcome logged in this assay for the molecule shown: `O=C(c1ccc(-n2nc(C(F)(F)F)c3c2CCCC3)cc1)N1CCN(c2cccc(Cl)c2)CC1` Y

Identify the outcome logged in this assay for the molecule shown: `Cc1cc(Nc2cc(N3CCN(C)CC3)nc(Sc3ccc(NC(=O)C4CC4)cc3)n2)n[nH]1` Y

Identify the outcome logged in this assay for the molecule shown: COc1ccc(OC)c(S(=O)(=O)N2CCc3c([nH]c4ccccc34)C2c2cccc(F)c2)c1 (centres undefined) N

Identify the outcome logged in this assay for the molecule shown: `N#C[C@H]1[C@@H](c2ccc(-c3cccc(F)c3)cc2)[C@H](CO)N1C(=O)NC1CCCC1` Y

Identify the outcome logged in this assay for the molecule shown: CCCNC(=O)N1C[C@@H]2N[C@H](C1)C2c1ccc(-c2cccc(F)c2)cc1 (some centres undefined) Y

###

# test_target: T. gondii ME49Luc in IFN-y HeLa, luciferase, 72 h
# protocol_text: T. gondii growth inhibition with IFN-gamma, dose response, cell-based, ME49Luc, HeLa, luciferase, 72 h (AID 1259418)
Inconclusive results are not listed. Active and inactive are the calls of the source.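 Rule for the calls: active = fitted half-maximal concentration of signal decrease at or below twice the sample's top tested concentration; inconclusive = flat curve between -70 and -30 percent, or poor fit; inactive = flat within 30 percent, signal rise, or potency above limit.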
# valid calls are true (active), false (inactive); nothing else

Examples from the recorded data:
Identify the outcome logged in this assay for the molecule shown: `CCOc1ccc(N(Cc2nc(-c3ccc(C)cc3)oc2C)S(=O)(=O)c2cccs2)cc1` true

Identify the outcome logged in this assay for the molecule shown: `CCc1nc(OCC(=O)Nc2ccc(C)c(F)c2)c2ccccc2n1` true

Identify the outcome logged in this assay for the molecule shown: `Cc1ccc(-c2nc(CN3CCN(C(=O)Nc4cccc(Cl)c4)CC3)c(C)o2)cc1` false

***
Identify the outcome logged in this assay for the molecule shown: COCC1CN(C(=O)c2ccccc2F)Cc2cnn(CC3CC3)c21 (centres undefined) true

Identify the outcome logged in this assay for the molecule shown: Cc1ccc(CSC2=Nc3ccccc3C3=NC(CCC(=O)NCCc4ccccc4)C(=O)N23)cc1 (centres undefined) true

Identify the outcome logged in this assay for the molecule shown: `Cc1cccc(-n2ncc3c(NCc4cccc(Cl)c4)ncnc32)c1` true

Identify the outcome logged in this assay for the molecule shown: `O=S(=O)(c1ccc2c(c1)CCCC2)N1CCC2(CC1)NCCN=C2NCc1ccc(Cl)cc1` true

Identify the outcome logged in this assay for the molecule shown: `C/C=C/c1ccc([C@@H]2[C@@H](CO)N3CCCCN(CCC(F)(F)F)C[C@@H]23)cc1` true

Identify the outcome logged in this assay for the molecule shown: `COc1ccc(N(Cc2nc(-c3ccc(C)cc3)oc2C)S(=O)(=O)c2ccc(C)cc2)cc1` true

Identify the outcome logged in this assay for the molecule shown: COc1ccc(-c2nc(NCC3CCN(Cc4ccc(C)cc4)C3)c3ccccc3n2)cc1 (centres undefined) true

Identify the outcome logged in this assay for the molecule shown: `Cc1nc(OCC(=O)Nc2ccc(Br)cc2F)c2ccccc2n1` true

Identify the outcome logged in this assay for the molecule shown: COc1ccc(-c2nc(NCCCN3CCCCC3C)c3ccccc3n2)cc1 (centres undefined) true

Identify the outcome logged in this assay for the molecule shown: COc1ccccc1-c1nc(CN2CCc3c(sc4c3CCCC4)C2c2ccccc2)c(C)o1 (centres undefined) true

###

# test_target: T. gondii ME49Luc in IFN-y HeLa, luciferase, 72 h
# protocol_text: T. gondii growth inhibition with IFN-gamma, dose response, cell-based, ME49Luc, HeLa, luciferase, 72 h (AID 1259418)
Records with an inconclusive call do not appear.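 How the source made its calls: active means fitted half-maximal concentration of signal decrease at or below twice the sample's top tested concentration; inconclusive means flat curve between -70 and -30 percent, or poor fit; inactive means flat within 30 percent, signal rise, or potency above limit.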
# valid calls are 1.0 for active, 0.0 for inactive; nothing else

Identify the outcome logged in this assay for the molecule shown: CCOC(=O)Cn1c(C)c(CN2CCCC2c2cc(C(C)C)no2)c2ccccc21 (stereo not given) 1.0

Identify the outcome logged in this assay for the molecule shown: `C[C@H](CO)N1C[C@H](C)[C@H](CN(C)Cc2ccc(Cl)c(Cl)c2)Oc2c(NS(=O)(=O)c3ccc(F)cc3)cccc2C1=O` 1.0

Identify the outcome logged in this assay for the molecule shown: `O=S(=O)(c1cccs1)N1CCCCN2[C@H](C1)[C@@H](c1ccc(/C=C/c3ccccc3)cc1)[C@@H]2CO` 1.0

Identify the outcome logged in this assay for the molecule shown: O=C(CCC1N=C2c3ccccc3N=C(SCc3cc(=O)n4cc(Cl)ccc4n3)N2C1=O)NCc1cccs1 (stereo not given) 1.0

Identify the outcome logged in this assay for the molecule shown: `O=S1(=O)c2ccccc2O[C@H]2CCN(Cc3ccc(Cl)cc3)CC[C@H]2N1CC1CC1` 1.0

###

# test_target: T. gondii ME49Luc in IFN-y HeLa, luciferase, 72 h
# protocol_text: T. gondii growth inhibition with IFN-gamma, dose response, cell-based, ME49Luc, HeLa, luciferase, 72 h (AID 1259418)
Inconclusive results are not listed. The source made the active and inactive calls.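 Rule for the calls: active = fitted half-maximal concentration of signal decrease at or below twice the sample's top tested concentration; inconclusive = flat curve between -70 and -30 percent, or poor fit; inactive = flat within 30 percent, signal rise, or potency above limit.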
# valid calls are class 1 for active, class 0 for inactive; nothing else

Examples from the recorded data:
Identify the outcome logged in this assay for the compound shown: `O=S(=O)(c1cccs1)N1CCC2(CC1)NCCN=C2NCc1ccc(C(F)(F)F)cc1` class 1

Identify the outcome logged in this assay for the compound shown: O=C(CC1N=C2c3ccccc3N=C(SCc3ccccc3F)N2C1=O)NCc1cccs1 (centres undefined) class 1

Identify the outcome logged in this assay for the compound shown: `Cc1ccc2c(c1)c1ncn(Cc3nc(C(C)C)no3)c(=O)c1n2CC(=O)N1CCCC1` class 1

***
Identify the outcome logged in this assay for the compound shown: `COc1cccc(NC(=O)Nc2ccc(-c3nc(-c4ccc(C)cc4C)co3)cc2)c1` class 0

Identify the outcome logged in this assay for the compound shown: `O=C(CCCCCn1c(=S)[nH]c2ccccc2c1=O)N1CCC(O)(c2cccc(C(F)(F)F)c2)CC1` class 1

Identify the outcome logged in this assay for the compound shown: `COc1ccccc1S(=O)(=O)N1CC[C@@H]2[C@H]1c1cc(-c3cccc(C#N)c3)ccc1N(C)[C@H]2CO` class 1

Identify the outcome logged in this assay for the compound shown: `CO[C@@H]1CCN(S(=O)(=O)N(C)C)C[C@@H]1Cc1cccc(C)c1` class 1

Identify the outcome logged in this assay for the compound shown: O=C(C1CCCCC1)N1C[C@@H]2N[C@H](C1)C2c1ccc(-c2ccccc2F)cc1 (some centres undefined) class 1

Identify the outcome logged in this assay for the compound shown: `Clc1ccc(-c2nc(N3CCC(N4CCCCC4)CC3)c3ccccc3n2)cc1` class 1

###

Items are presented alongside their recorded AC50.
# test_target: T. gondii ME49Luc in IFN-y HeLa, luciferase, 72 h
# protocol_text: T. gondii growth inhibition with IFN-gamma, dose response, cell-based, ME49Luc, HeLa, luciferase, 72 h (AID 1259418)
Inconclusive results are not listed.

Query for T. gondii ME49Luc in IFN-y HeLa, luciferase, 72 h: what AC50 does the record show for `O=C(CCn1c2c(c3ccccc31)CCCC2)N1CCC(c2ccncc2)CC1` ? 15.3 µM

***
Query for T. gondii ME49Luc in IFN-y HeLa, luciferase, 72 h: what AC50 does the record show for `COc1ccc(C#Cc2ccc([C@H]3[C@@H](CO)N4C(=O)CN(C(=O)NC(C)C)C[C@@H]34)cc2)cc1` ? 22.3 µM

Query for T. gondii ME49Luc in IFN-y HeLa, luciferase, 72 h: what AC50 does the record show for `O=S(=O)(c1cccs1)N1CCCCN2[C@H](CO)[C@H](c3ccc(/C=C/c4ccccc4)cc3)[C@@H]2C1` ? 18.8 µM
